# assay.target: human LAT-2 (Homo sapiens (Human), UniProt Q9UHI5)
# Sequence (Q9UHI5 whole entry): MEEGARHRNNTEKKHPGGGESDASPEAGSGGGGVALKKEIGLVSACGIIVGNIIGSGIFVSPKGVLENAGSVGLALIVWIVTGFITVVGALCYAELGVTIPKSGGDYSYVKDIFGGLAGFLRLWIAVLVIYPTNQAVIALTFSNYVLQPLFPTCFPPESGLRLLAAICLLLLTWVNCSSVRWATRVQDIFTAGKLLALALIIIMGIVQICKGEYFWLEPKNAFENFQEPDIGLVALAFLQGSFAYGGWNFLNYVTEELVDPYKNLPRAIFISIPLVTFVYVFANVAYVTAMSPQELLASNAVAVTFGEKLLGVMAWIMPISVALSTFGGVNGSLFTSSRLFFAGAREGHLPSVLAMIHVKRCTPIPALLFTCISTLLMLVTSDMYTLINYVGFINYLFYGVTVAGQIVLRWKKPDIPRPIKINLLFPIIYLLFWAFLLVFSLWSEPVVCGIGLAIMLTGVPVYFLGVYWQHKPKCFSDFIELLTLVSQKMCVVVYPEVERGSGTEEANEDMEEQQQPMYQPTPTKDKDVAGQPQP
# Sequence (P08195 102-630 partner): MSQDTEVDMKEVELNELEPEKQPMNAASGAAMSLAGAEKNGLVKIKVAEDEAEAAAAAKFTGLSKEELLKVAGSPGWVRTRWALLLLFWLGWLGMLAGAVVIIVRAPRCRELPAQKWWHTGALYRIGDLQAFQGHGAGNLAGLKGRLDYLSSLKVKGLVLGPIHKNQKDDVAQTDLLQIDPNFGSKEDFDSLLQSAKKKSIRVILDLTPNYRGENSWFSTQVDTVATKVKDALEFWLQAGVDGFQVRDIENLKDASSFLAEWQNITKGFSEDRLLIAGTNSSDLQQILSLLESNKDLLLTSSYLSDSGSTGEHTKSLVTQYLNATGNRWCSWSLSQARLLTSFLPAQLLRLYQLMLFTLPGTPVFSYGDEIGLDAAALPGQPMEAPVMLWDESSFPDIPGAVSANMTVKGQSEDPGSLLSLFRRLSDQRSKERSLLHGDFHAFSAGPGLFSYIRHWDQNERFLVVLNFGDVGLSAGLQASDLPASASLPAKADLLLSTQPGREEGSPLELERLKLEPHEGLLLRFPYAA
# procedure.text: Inhibition of [14C] amino acid uptake into human LAT-2 stably expressing HEK293 cell line (uptake buffer, 1 min)
# condition.context: HEK293 human LAT-2 stably expressing cells; Na+-free HBSS pH7.4; [14C]L-leucine or alanine 1 μM, uptake 1 min; read-out: LAT-2 inhibitory activity/IC50
# Method: 1) LAT-1 Inhibitory Activity and LAT-2 Inhibitory Activity Inhibitory Effect on Uptake of Amino Acid into Human LAT-1 Stably Expressing Cell Line and LAT-2 Stably Expressing Cell Line […] The above-mentioned stably expressing cells were plated on a 24-well collagen plate at 1.2×10^5 cells/well, and, after 48 hr, the cells were washed (×3) with uptake buffer ([…] Hank's balanced salt solution (HBSS) pH7.4) kept at 37° C. […] The uptaken radioactivity was measured using the remaining solution. […]
pIC50: −log10 of the molar value.
endpoint.label: pIC50

{"columns": ["compound", "assay.target", "pIC50"],
 "data": [
  ["NCCCCC(Oc1ccc(OC(F)(F)F)c(F)c1)c1cccs1 (stereo not drawn) [Example 53]", "human LAT-2 (Homo sapiens (Human), UniProt Q9UHI5)", 3.59]
]}

(a) NCCCCCC(Oc1ccc(C(F)(F)F)cc1)c1ccccc1 (stereo not drawn) [Example 6]
(b) NCCCC[C@H](Oc1ccc(C(F)(F)F)c(F)c1)c1ccccc1.O=C(O)/C=C/C(=O)O [Example 69, fumarate]
q: Look at a and b . Which one has the lower recorded pIC50 number? Choose, then provide that item's label.
a: a
(a: 3.89, b: 4.28)
